System: redroot pigweed (Amaranthus retroflexus)
assay_overview: Test G Post-Emergence Protocol
Type: in vivo
condition_notes: Amaranthus retroflexus, post-emergence, 312 h, 62.5 g ai/ha, evaluated after 13 days, 100=total damage to plant, 0=no damage to plant, read-out: Pigweed, Redroot damage rating
Entries and their pest or weed control at 62.5 g/ha values follow.
Give the quantity in %, number only.

// known answers, use as guide
CN1C[C@H](c2ccnc(C(C)(C)C)n2)[C@@H](C(=O)Nc2ccc(F)c(F)c2F)C1=O (racemic) [Compound 1770] = 20
Cc1ccc([C@H]2CN(C)C(=O)[C@@H]2C(=O)Nc2ccc3cccnc3n2)cc1 (racemic) [Compound 1675] = 0
CN1C[C@H](c2ccc(C(F)F)cc2)[C@@H](C(=O)Nc2cccc(F)c2F)C1=O (racemic) [Compound 1728] = 0

Qu. Any idea what pest or weed control at 62.5 g/ha was measured for CN1C[C@H](c2ccc(F)c(C#N)c2)[C@@H](C(=O)Nc2ccccc2S(C)(=O)=O)C1=O (racemic) [Compound 1798] ?
Ans. 0

###

System: ducksalad (Heteranthera limosa)
assay_overview: Test B flooded paddy test
Format: in vivo
condition_notes: Flood, 500 g ai/ha; 0 to 100 scale where 0 is no effect and 100 is complete control; 13 to 15 d
Field 'label' (enum: true (1) / false (0)). Set to true (1) when Plant response rating, Ducksalad is strictly under 50; else false (0).

Recorded results for 4 compounds are shown here.
Cc1cc(NC(=O)C2C(=O)NCC2c2ccc(F)c(F)c2)ccc1C(F)(F)F (stereo not shown) = true (1)
COC(=O)c1ccccc1NC(=O)C1C(=O)NCC1c1cccc(C(F)(F)F)c1 (racemic) = true (1)
COc1cccc(NC(=O)C2C(=O)NCC2c2cccc(OC(F)F)c2)c1F (stereo not shown) = true (1)
O=C1NCC(c2cccc(C(F)(F)F)c2)C1C(=O)Nc1ccc(F)cc1Cl (racemic) = false (0)

Lab note: next compound to report on.
Qu. hey, is Plant response rating, Ducksalad for O=C1NCC(c2ccc3c(c2)OC(F)(F)O3)C1C(=O)Nc1cccc(F)c1F (stereo not shown) lower than 50 or not?
Ans. false (0)

###

Test system: redroot pigweed (Amaranthus retroflexus)
assay_overview: Test G Pre-Emergence Protocol
Assay type: in vivo
condition_notes: Amaranthus retroflexus, pre-emergence, 312 h, 250 g ai/ha, evaluated after 13 days, read-out: Pigweed, Redroot damage rating (100=total damage to plant; 0=no damage to plant)
Binary call on pest or weed control at 250 g/ha: T from 10% upward, F beneath that.

Known results for molecules:
CN1C[C@@H](c2ccc(C(F)(F)F)cc2)[C@H](C(=O)Nc2ccno2)C1=O (racemic) = F
CN1C[C@H](c2cccc(C(F)(F)F)c2)[C@@H](C(=O)Nc2cccc3c2S(=O)(=O)CC3)C1=O (racemic) = F
COc1c(Cl)ccc([C@H]2CNC(=O)[C@@H]2C(=O)Nc2cccc(F)n2)c1F (racemic) = F
CN1C[C@@H](c2ccc(CF)cc2)[C@H](C(=O)Nc2cccc(F)c2F)C1=O (racemic) = T

Qu. Assess whether reported pest or weed control at 250 g/ha for COc1c(F)cc(C2CN(C)C(=O)C2C(=O)Nc2cccc(F)c2F)cc1F (stereo not shown) sits at 10% or higher.
Ans. T

Qu. Quick check, pest or weed control at 250 g/ha >= 10%? Cc1c(NC(=O)[C@@H]2C(=O)N(C)C[C@H]2c2ccc(C(F)(F)F)cc2)ccc(F)c1F (racemic)
Ans. T

Qu. Please indicate if the recorded pest or weed control at 250 g/ha for CN1C[C@H](c2ccc(C(F)(F)F)cc2)[C@@H](C(=O)Nc2ccc(F)c(C(F)(F)F)c2)C1=O (racemic) meets or exceeds 10%.
Ans. F

Attribution: patent US12077503B2
